Test system: 628569-122-R-J1-PDC complex spheroid viability
Test: Anticancer human tumor 628569-122-R-J1-PDC patient-derived head and neck squamous carcinoma cell line growth inhibition [CLK]
Details: second compound 3.16 µM; first compound 3.16 µM; active compounds read low
// reported viability, T/C per item
Numbers only; they are read as %.

The cases that follow already have their viability, T/C on record.
CC1COCCN1c1cc(C2(S(C)(=N)=O)CC2)nc(-c2ccnc3[nH]ccc23)n1 (stereo not drawn) + CN1CCN(c2cc(C(=O)Nc3cc4cc(-c5cnn(C)c5)ccc4cn3)ccn2)CC1: 9.82
COC1C=CCC(C)C(C)S(=O)(=O)NC(=O)c2ccc3c(c2)N(CC2CCC21)CC1(CCCc2cc(Cl)ccc21)CO3 (stereo not drawn) + CNC(=O)c1ccc(Nc2nc(OC3CCCC3)c3c(-c4ccc5nc(C)oc5c4)c[nH]c3n2)c(OC)c1: 30.9

Kindly review the next compound as well.
Asked: Given the entry C=CC(=O)N1CCN(c2nc(=O)n(-c3c(C)ccnc3C(C)C)c3nc(-c4c(O)cccc4F)c(F)cc23)C(C)C1 (stereo not drawn) + CNC(=O)c1ccc(Nc2nc(OC3CCCC3)c3c(-c4ccc5nc(C)oc5c4)c[nH]c3n2)c(OC)c1 , report its measured viability, T/C.
Given back: 54.7

----------
System: 628569-122-R-J1-PDC complex spheroid viability
Test: Anticancer human tumor 628569-122-R-J1-PDC cell line growth inhibition [CLK];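 note: spheroids exposed to agents for seven days before readout; 100% = DMSO vehicle control viability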
Conditions: second compound 0.0316 µM; first compound 0.1 µM; active compounds read low
Rule for this label: y means viability, T/C is less than 80%; n means viability, T/C is at least 80%.

Use these answered entries as a reference point.
CC(Nc1ccc2c(c1)OCCn1cc(N3C(=O)OCC3C(F)F)nc1-2)C(N)=O (stereo unspecified) + CNC(=O)c1ccc(Nc2nc(OC3CCCC3)c3c(-c4ccc5nc(C)oc5c4)c[nH]c3n2)c(OC)c1: y
CC(Nc1ccc2c(c1)OCCn1cc(N3C(=O)OCC3C(F)F)nc1-2)C(N)=O (stereo unspecified) + CN1CCN(c2cc(C(=O)Nc3cc4cc(-c5cnn(C)c5)ccc4cn3)ccn2)CC1: y
O=c1[nH]cc(F)c(=O)[nH]1 + CNC(=O)c1ccc(Nc2nc(OC3CCCC3)c3c(-c4ccc5nc(C)oc5c4)c[nH]c3n2)c(OC)c1: n
C=CC(=O)N1CCN(c2nc(=O)n(-c3c(C)ccnc3C(C)C)c3nc(-c4c(O)cccc4F)c(F)cc23)C(C)C1 (stereo unspecified) + CNC(=O)c1ccc(Nc2nc(OC3CCCC3)c3c(-c4ccc5nc(C)oc5c4)c[nH]c3n2)c(OC)c1: n
CC(CO)NC(=O)c1cc(-c2ccc(Cl)cc2)nn(-c2cnn(C)c2)c1=O (stereo unspecified) + CNC(=O)c1ccc(Nc2nc(OC3CCCC3)c3c(-c4ccc5nc(C)oc5c4)c[nH]c3n2)c(OC)c1: n
CCCS(=O)(=O)Nc1ccc(F)c(C(=O)c2c[nH]c3ncc(-c4ccc(Cl)cc4)cc23)c1F + CNC(=O)c1ccc(Nc2nc(OC3CCCC3)c3c(-c4ccc5nc(C)oc5c4)c[nH]c3n2)c(OC)c1: n

Asked: Could you please tell me whether viability, T/C recorded for Nc1ccn(C2OC(CO)C(O)C2(F)F)c(=O)n1 (stereo unspecified) + CNC(=O)c1ccc(Nc2nc(OC3CCCC3)c3c(-c4ccc5nc(C)oc5c4)c[nH]c3n2)c(OC)c1 is less than 80%?
Given back: y

Asked: Could you please tell me whether viability, T/C recorded for CCCS(=O)(=O)Nc1ccc(F)c(C(=O)c2c[nH]c3ncc(-c4ccc(Cl)cc4)cc23)c1F + CN1CCN(c2cc(C(=O)Nc3cc4cc(-c5cnn(C)c5)ccc4cn3)ccn2)CC1 is less than 80%?
Given back: n

Asked: Could you please tell me whether viability, T/C recorded for Nc1ccccc1NC(=O)c1ccc(CNC(=O)OCc2cccnc2)cc1 + CNC(=O)c1ccc(Nc2nc(OC3CCCC3)c3c(-c4ccc5nc(C)oc5c4)c[nH]c3n2)c(OC)c1 is less than 80%?
Given back: n
